Cited source for all entries: patent US5310920A

LC50 overview
# System: Laodelphax striatellus Fallen - smaller brown planthopper
# TEST_SUMMARY: Test Example 5: Effect on smaller brown planthopper, LC50
# Assay type: in vivo
# PROTOCOL_CONDITIONS: 48 hours, 25° C.
Please state the figure in ppm; there is no need to write the unit.

O=[N+]([O-])N=C1N(C=Cc2ccccc2)CCN1Cc1ccc(Cl)nc1 :: 3
C=CCN1CCN(Cc2ccc(Cl)nc2)C1=N[N+](=O)[O-] [Reference Chemical 1, reference compound] :: 10
CC(C)C=CN1CCN(Cc2ccc(Cl)nc2)C1=N[N+](=O)[O-] :: 1

Lab note: next compound to report on.
Query string: Need LC50 of O=[N+]([O-])N=C1N(CCc2ccccc2)CCN1Cc1ccc(Cl)nc1 [Reference Chemical 2, reference compound] , thanks.
Result string: 20
